# pKd listing for each entry below
Biological target: T1, EsCas13d, nuclease-dead (Eubacterium siraeum, UniProt B0MS50, R295A;H300A;R849A;H854A)
T1 sequence: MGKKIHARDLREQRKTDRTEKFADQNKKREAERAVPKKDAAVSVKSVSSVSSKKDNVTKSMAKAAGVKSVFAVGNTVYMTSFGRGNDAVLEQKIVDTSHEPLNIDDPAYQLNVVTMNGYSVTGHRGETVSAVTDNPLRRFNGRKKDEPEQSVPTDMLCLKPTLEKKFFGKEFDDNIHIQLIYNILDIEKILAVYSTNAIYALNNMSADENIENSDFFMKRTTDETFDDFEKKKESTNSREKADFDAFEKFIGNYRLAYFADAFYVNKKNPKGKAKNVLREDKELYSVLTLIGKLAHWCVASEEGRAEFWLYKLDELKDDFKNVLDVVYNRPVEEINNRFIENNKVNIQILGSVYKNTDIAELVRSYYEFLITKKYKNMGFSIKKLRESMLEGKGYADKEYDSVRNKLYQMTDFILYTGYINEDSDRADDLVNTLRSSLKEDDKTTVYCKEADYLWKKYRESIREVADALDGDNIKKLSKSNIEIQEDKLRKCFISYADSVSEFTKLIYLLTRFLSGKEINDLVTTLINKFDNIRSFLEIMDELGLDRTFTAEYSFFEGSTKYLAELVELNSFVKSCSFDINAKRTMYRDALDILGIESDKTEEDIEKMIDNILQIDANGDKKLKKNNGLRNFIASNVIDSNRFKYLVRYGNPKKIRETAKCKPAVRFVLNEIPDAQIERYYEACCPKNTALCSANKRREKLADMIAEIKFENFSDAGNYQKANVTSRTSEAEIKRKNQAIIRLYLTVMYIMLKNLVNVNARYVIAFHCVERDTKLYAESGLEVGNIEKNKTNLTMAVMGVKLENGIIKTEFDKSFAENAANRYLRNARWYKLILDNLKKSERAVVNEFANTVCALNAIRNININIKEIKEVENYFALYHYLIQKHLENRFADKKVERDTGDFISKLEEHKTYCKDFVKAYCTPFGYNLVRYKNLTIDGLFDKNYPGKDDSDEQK
Experiment: crRNA (strand 1, pre-loaded); Mg2+; 40 mM Tris-HCl pH 7.5, 150 mM NaCl, 6 mM MgCl2, 1 mM DTT, 0.1% Tween-20, 0.2 mg/ml BSA; 25 C; 10 min per concentration, then washed
Details: tags: His6-TwinStrep-SUMO cleaved; N-terminal SNAP kept (SNAP-Surface 488); label: 3' end held by stalled T7 RNA polymerase
pKd: −log10 of the molar value.
outcome.measure: pKd

target 1 C2G,A14G (mixed) RNA 1: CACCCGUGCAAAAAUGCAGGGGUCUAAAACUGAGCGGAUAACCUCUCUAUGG RNA 2: GGGAAUGGAUCCACAUCUACGAAUUCGUACCAUAGAGGGGUUAUCCGCUGACCGAGAUCGGAAGAGCACACGU: 7.81
target 1 U8G,G13A (mixed) RNA 1: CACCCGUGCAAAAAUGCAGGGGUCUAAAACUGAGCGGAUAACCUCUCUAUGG RNA 2: GGGAAUGGAUCCACAUCUACGAAUUCGUACCAUAGAGAAGUUAGCCGCUCACCGAGAUCGGAAGAGCACACGU: 7.90
target 2 MT 5'PFS UAU 3'PFS CAA (mixed) RNA 1: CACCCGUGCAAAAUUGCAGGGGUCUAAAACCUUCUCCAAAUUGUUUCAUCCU RNA 2: GGGAAUGGAUCCACAUCUACGAAUUCUAUAGGAUGAAACAAUUUGGAGAAGCAAAGAUCGGAAGAGCACACGU: 7.85
target 1 insC 3' of 9,insU 3' of 9 (mixed) RNA 1: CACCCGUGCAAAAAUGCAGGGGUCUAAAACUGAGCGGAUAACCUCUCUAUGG RNA 2: GGGAAUGGAUCCACAUCUACGAAUUCGUACCAUAGAGAGGUUACUUCCGCUCACCGAGAUCGGAAGAGCACACGU: 8.10
target 3 C6U,A12G (mixed) RNA 1: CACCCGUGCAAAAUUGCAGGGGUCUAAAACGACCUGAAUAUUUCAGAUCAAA RNA 2: GGGAAUGGAUCCACAUCUACGAAUUCGUUUUUGAUCUGAGAUAUUUAGGUCUGCAGAUCGGAAGAGCACACGU: 7.48
target 2 MT 5'PFS UAC 3'PFS AAU (mixed) RNA 1: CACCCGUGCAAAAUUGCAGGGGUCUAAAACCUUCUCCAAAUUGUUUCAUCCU RNA 2: GGGAAUGGAUCCACAUCUACGAAUUCUACAGGAUGAAACAAUUUGGAGAAGAAUAGAUCGGAAGAGCACACGU: 8.00
target 1 MT 5'PFS CAC 3'PFS ACU (mixed) RNA 1: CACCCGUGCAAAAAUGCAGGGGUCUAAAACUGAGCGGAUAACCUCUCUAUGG RNA 2: GGGAAUGGAUCCACAUCUACGAAUUCCACCCAUAGAGAGGUUAUCCGCUCAACUAGAUCGGAAGAGCACACGU: 7.68
target 2 MT 5'PFS GGU 3'PFS AAU (mixed) RNA 1: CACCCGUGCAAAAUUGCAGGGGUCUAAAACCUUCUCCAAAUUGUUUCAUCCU RNA 2: GGGAAUGGAUCCACAUCUACGAAUUCGGUAGGAUGAAACAAUUUGGAGAAGAAUAGAUCGGAAGAGCACACGU: 7.91
